Source listed as patent US5763435A.

Listed next: entries and their corresponding UDCA percent of jejunal bile acids.
- System: Principal Bile Acids in Jejunum
- Assay Info: Bile acid composition of jejunum after oral administration (GC-MS)
- Format: in vivo, Sprague-Dawley rats
- Conditions Used: oral gavage 250 mg/day, 4 days; mean ± SEM

>  <Compound>
C[C@H](CCC(=O)O)[C@H]1CC[C@H]2[C@@H]3[C@@H](O)C[C@@H]4C[C@H](O)CC[C@]4(C)[C@H]3CC[C@]12C [UDCA, reference compound]

>  <UDCA percent of jejunal bile acids>
35.9%

$$$$
>  <Compound>
C[C@H](CCC(=O)O)[C@H]1CC[C@H]2[C@@H]3[C@@H](OS(=O)(=O)O)C[C@@H]4C[C@H](OS(=O)(=O)O)CC[C@]4(C)[C@H]3CC[C@]12C [UDCA-DS, ursodeoxycholic acid 3,7-disulfate]

>  <UDCA percent of jejunal bile acids>
2.0%

$$$$
>  <Compound>
C[C@H](CCC(=O)O)[C@H]1CC[C@H]2[C@@H]3[C@@H](O)C[C@@H]4C[C@H](OS(=O)(=O)O)CC[C@]4(C)[C@H]3CC[C@]12C [UDCA-3S, ursodeoxycholic acid 3-sulfate]

>  <UDCA percent of jejunal bile acids>
16.4%

$$$$
>  <Compound>
C[C@H](CCC(=O)O)[C@H]1CC[C@H]2[C@@H]3[C@@H](OS(=O)(=O)O)C[C@@H]4C[C@H](O)CC[C@]4(C)[C@H]3CC[C@]12C [UDCA-7S, ursodeoxycholic acid 7-sulfate]

>  <UDCA percent of jejunal bile acids>
4.7%

$$$$

###

Listed next: entries and their corresponding Relative % composition in bile: UDCA.
- Tested on: bile acids secreted in bile
- Assay Info: Biliary bile acid composition during i.v. infusion (GC-MS)
- Type: in vivo, Sprague-Dawley rats
- Conditions Used: 50-60 mins
Endpoint: Relative % composition in bile: UDCA

>  <Compound>
C[C@H](CCC(=O)O)[C@H]1CC[C@H]2[C@@H]3[C@@H](OS(=O)(=O)O)C[C@@H]4C[C@H](O)CC[C@]4(C)[C@H]3CC[C@]12C [UDCA-7S, ursodeoxycholic acid 7-sulfate]

>  <Study Target>
bile acids secreted in bile

>  <Endpoint>
Relative % composition in bile: UDCA

>  <Value>
83.6%

$$$$
>  <Compound>
C[C@H](CCC(=O)O)[C@H]1CC[C@H]2[C@@H]3[C@@H](OS(=O)(=O)O)C[C@@H]4C[C@H](OS(=O)(=O)O)CC[C@]4(C)[C@H]3CC[C@]12C [UDCA-DS, ursodeoxycholic acid 3,7-disulfate]

>  <Study Target>
bile acids secreted in bile

>  <Endpoint>
Relative % composition in bile: UDCA

>  <Value>
70.7%

$$$$
>  <Compound>
C[C@H](CCC(=O)O)[C@H]1CC[C@H]2[C@@H]3[C@@H](O)C[C@@H]4C[C@H](OS(=O)(=O)O)CC[C@]4(C)[C@H]3CC[C@]12C [UDCA-3S, ursodeoxycholic acid 3-sulfate]

>  <Study Target>
bile acids secreted in bile

>  <Endpoint>
Relative % composition in bile: UDCA

>  <Value>
70.6%

$$$$
>  <Compound>
C[C@H](CCC(=O)O)[C@H]1CC[C@H]2[C@@H]3[C@@H](O)C[C@@H]4C[C@H](O)CC[C@]4(C)[C@H]3CC[C@]12C [UDCA, reference compound]

>  <Study Target>
bile acids secreted in bile

>  <Endpoint>
Relative % composition in bile: UDCA

>  <Value>
65.9%

$$$$
